src = PubChem BioAssay (NCI)

# Tested on: MDA-MB-468 breast
# assay.procedure: NCI-60 one-dose screen, 48 h (100 = growth as untreated, 0 = no growth, -100 = all killed)
# measurement.context: 10 µM unless noted
# Protocol: Growth inhibition of the MDA-MB-468 human Breast tumor cell line is measured as a screen for anti-cancer activity. Cells are grown in 96 well plates and exposed to the test compound for 48 hours. Compounds are tested at a single concentration, which is 10^-5 M for most compounds. The reported endpoint is percent growth (GI% or GIPRCNT), where numbers from 0 - 100% represent growth inhibition, and numbers from -100% - 0 represent cell death. […]
Compounds without any hit were thinned out: in the full panel of roughly 83,000, 20% have a hit.
Listed compounds paired with reported growth
property.label: growth (%)

compound=CCCCc1nc2c(N)nc3ccccc3c2n1Cc1ccc(OC)cc1 tested_system="MDA-MB-468 breast" property_label=growth measured_result=41.2
compound=CS(=O)(=O)c1nccc(-c2c(-c3ccc(F)c(OCCc4ccc(F)cc4)c3)nc3sccn23)n1 tested_system="MDA-MB-468 breast" property_label=growth measured_result=-52.2
compound=CN1CCN(c2ccc(Nc3ncc(Cl)c(NC[C@@H]4CCCO4)n3)cc2)CC1 tested_system="MDA-MB-468 breast" property_label=growth measured_result=30.7
compound="C=CCCCOC1[C@H](OCc2ccccc2)C(OCc2ccccc2)C(OC)O[C@@H]1CNC(=O)c1cccc(I)c1 (stereo not given in full)" tested_system="MDA-MB-468 breast" property_label=growth measured_result=24.8
compound="COc1ccc(/C=N/C2=C(C#N)C(c3ccc(OC)cc3)c3ccc4ccccc4c3O2)cc1 (stereo not given)" tested_system="MDA-MB-468 breast" property_label=growth measured_result=38.2
compound=COc1ccc(/C=C2\CCc3ccccc3C2=O)cc1 tested_system="MDA-MB-468 breast" property_label=growth measured_result=76.7
compound=Brc1cc(-c2cc(-c3ccc4c(c3)OCCO4)[nH]n2)cs1 tested_system="MDA-MB-468 breast" property_label=growth measured_result=12
compound=COc1ccc(C(=O)CSc2nc3c(c(Nc4ccc(S(N)(=O)=O)cc4)n2)CCCC3)cc1 tested_system="MDA-MB-468 breast" property_label=growth measured_result=108
compound=CCCCCCCC/C=C/CCCCCCCC1=NC(C)(C)CN1C(C)C tested_system="MDA-MB-468 breast" property_label=growth measured_result=-70.1
compound=COc1cc(/C=C/c2cc(/C=C/c3ccc(O)c(OC)c3)n(C(=O)Nc3ccc(F)cc3)n2)ccc1O tested_system="MDA-MB-468 breast" property_label=growth measured_result=-14.6
